assay_text: p53 small molecule agonists, cell-based qHTS assay with human liver microsomes: qHTS cell viability counter screen (AID 1963579); also: nearly all actives have a fitted effect of over 45% in size
conditions: p53RE-bla HCT-116 viability, ATP luminescence, 16 h, HLM; series mostly up to 66 µM
Records with an inconclusive call do not appear. Active and inactive are the calls of the source. Calls follow the shape of the full dose curve.
Outcomes: class 1 for active, class 0 for inactive

>  <compound>
Cc1c(N)c(=O)n(-c2ccccc2)n1C

>  <group>
class 0

$$$$
>  <compound>
Oc1c(Cl)cc(Cl)c2cccnc12

>  <group>
class 0

$$$$
>  <compound>
Cc1ccc(O)c(C(C)(C)C)c1

>  <group>
class 0

$$$$
>  <compound>
CC1CC(OC(=O)C(O)c2ccccc2)CC(C)(C)N1C (configuration not stated)

>  <group>
class 0

$$$$
>  <compound>
O=C1c2ccccc2C(=O)N1CCc1noc(-c2ccc(CN3CCCCCC3)s2)n1

>  <group>
class 0

$$$$
>  <compound>
CC(C)(C)c1ccc(OC(=O)c2ccccc2O)cc1

>  <group>
class 0

$$$$
>  <compound>
CCCC/C=C/C=C\C=O

>  <group>
class 0

$$$$
>  <compound>
CC(C)c1ccc2c(c1)CC[C@H]1[C@](C)(CN)CCC[C@]21C

>  <group>
class 1

$$$$
>  <compound>
NC(=S)NC(N)=S

>  <group>
class 0

$$$$
>  <compound>
N#CCCOCCOCCC#N

>  <group>
class 0

$$$$
>  <compound>
Cc1cc(O)c2c(c1)C(=O)c1cc(O)cc(O)c1C2=O

>  <group>
class 0

$$$$
>  <compound>
Cc1cc(C(C#N)c2ccc(Cl)cc2)c(Cl)cc1NC(=O)c1cc(I)cc(I)c1O (configuration not stated)

>  <group>
class 0

$$$$
>  <compound>
CCN(CC)c1ccc2c(c1)Oc1cc(N(CC)CC)ccc1C21OC(=O)c2ccccc21

>  <group>
class 0

$$$$
>  <compound>
CCCC(=O)OC

>  <group>
class 0

$$$$
>  <compound>
CCCCN(CCCC)c1ccc(C(=O)c2ccccc2C(=O)O)c(O)c1

>  <group>
class 1

$$$$
>  <compound>
CC[C@@]1(c2ccccc2)NC(=O)N(C)C1=O

>  <group>
class 0

$$$$
>  <compound>
NC(=O)N1C(=O)C(C(=O)c2cc(Cl)cs2)c2cc(F)c(Cl)cc21 (configuration not stated)

>  <group>
class 0

$$$$
>  <compound>
CCO[C@H](Cc1ccc(OCCc2ccc(OS(C)(=O)=O)cc2)cc1)C(=O)O

>  <group>
class 0

$$$$
>  <compound>
O=C1NC(=O)c2cccc3cccc1c23

>  <group>
class 0

$$$$
>  <compound>
O=C=NC1CCC(CC2CCC(N=C=O)CC2)CC1 (configuration not stated)

>  <group>
class 0

$$$$
>  <compound>
Clc1sc(Cl)c(Cl)c1Cl

>  <group>
class 0

$$$$
>  <compound>
COCCOC[C@H](CC1(C(=O)NC2CCC(C(=O)O)CC2)CCCC1)C(=O)Oc1ccc2c(c1)CCC2 (some centres not stated)

>  <group>
class 0

$$$$
>  <compound>
CC/C=C\CC/C=C/CO

>  <group>
class 0

$$$$
>  <compound>
O=C(N/N=C/c1ccccc1O)c1ccncc1

>  <group>
class 1

$$$$
>  <compound>
NC(=O)CCCCC1CCSS1 (configuration not stated)

>  <group>
class 0

$$$$
>  <compound>
CO[Si](OC)(c1ccccc1)c1ccccc1

>  <group>
class 0

$$$$
>  <compound>
Cc1ccccc1N=C(N)N=C(N)N

>  <group>
class 0

$$$$

Every entry's value here was drawn from PubChem BioAssay (Tox21).
